# experiment summary: collision cross section of modified peptide (TIMS, N2, iRT-aligned); higher = larger / more extended gas-phase ion
# condition: charge state: 2; modification: Phospho (Y)

substance | measurement units | collision cross section
GYDVIAQAQSGTGK [_GY(Phospho (Y))DVIAQAQSGTGK_] | Å² | 388.75
VYVGNLGTGAGK [_VY(Phospho (Y))VGNLGTGAGK_] | Å² | 364.53
YTTNNSSEQR [_Y(Phospho (Y))TTNNSSEQR_] | Å² | 363.91
GSELQNYFTK [_GSELQNY(Phospho (Y))FTK_] | Å² | 373.39
YVHADAPTNK [_Y(Phospho (Y))VHADAPTNK_] | Å² | 354.72
SYSVGASGSSSR [_SY(Phospho (Y))SVGASGSSSR_] | Å² | 356.68
LELAQYR [_LELAQY(Phospho (Y))R_] | Å² | 329.12
YEATSVQQK [_Y(Phospho (Y))EATSVQQK_] | Å² | 348.75
YTQVGPDHNR [_Y(Phospho (Y))TQVGPDHNR_] | Å² | 363.13
SYHLQIVTK [_SY(Phospho (Y))HLQIVTK_] | Å² | 357.29
YTCSFCGK [_Y(Phospho (Y))TCSFCGK_] | Å² | 336.46
AAGQPYEQHAK [_AAGQPY(Phospho (Y))EQHAK_] | Å² | 368.83
TSYAQHQQVR [_TSY(Phospho (Y))AQHQQVR_] | Å² | 370.43
APEYLHR [_APEY(Phospho (Y))LHR_] | Å² | 334.14

---

# experiment summary: collision cross section of modified peptide (TIMS, N2, iRT-aligned); higher = larger / more extended gas-phase ion
# condition: charge state: 2; modification: Nitro (Y)

substance | measurement units | collision cross section
THLAPYSDELR [_THLAPY(Nitro (Y))SDELR_] | Å² | 377.13
YTCSFCGK [_Y(Nitro (Y))TCSFCGK_] | Å² | 334.4
LSITGTYDLK [_LSITGTY(Nitro (Y))DLK_] | Å² | 368.48
TEVNSGFFYK [_TEVNSGFFY(Nitro (Y))K_] | Å² | 367.43
LEENHYNTYISK [_LEENHYNTY(Nitro (Y))ISK_] | Å² | 425.11
YLHDESGLNR [_Y(Nitro (Y))LHDESGLNR_] | Å² | 366.66
PDTQYTGR [_PDTQY(Nitro (Y))TGR_] | Å² | 325.57
DYNVTANSK [_DY(Nitro (Y))NVTANSK_] | Å² | 334.81
DLYEPSHGAK [_DLY(Nitro (Y))EPSHGAK_] | Å² | 364.04
LVFDEYLK [_LVFDEY(Nitro (Y))LK_] | Å² | 355.63
SYSVGASGSSSR [_SY(Nitro (Y))SVGASGSSSR_] | Å² | 351.9
YVGESEANIR [_Y(Nitro (Y))VGESEANIR_] | Å² | 357.77
YVHADAPTNK [_Y(Nitro (Y))VHADAPTNK_] | Å² | 352.73
STCTYVGAAK [_STCTY(Nitro (Y))VGAAK_] | Å² | 340.86
DDSNLYINVK [_DDSNLY(Nitro (Y))INVK_] | Å² | 367.46
LYAVHQEGNK [_LY(Nitro (Y))AVHQEGNK_] | Å² | 359.52
GYGVIFANGNR [_GY(Nitro (Y))GVIFANGNR_] | Å² | 360.58
GSELQNYFTK [_GSELQNY(Nitro (Y))FTK_] | Å² | 363.07
YIGTGHADTTK [_Y(Nitro (Y))IGTGHADTTK_] | Å² | 358.04
TAIQAAGYPDK [_TAIQAAGY(Nitro (Y))PDK_] | Å² | 354.49
AEGYEVAHGGR [_AEGY(Nitro (Y))EVAHGGR_] | Å² | 365.03
YEITEQR [_Y(Nitro (Y))EITEQR_] | Å² | 327.03
AAGQPYEQHAK [_AAGQPY(Nitro (Y))EQHAK_] | Å² | 375.04
IPPTYQIR [_IPPTY(Nitro (Y))QIR_] | Å² | 343.35
FYTEDSPGLK [_FY(Nitro (Y))TEDSPGLK_] | Å² | 356.24

---

# experiment summary: collision cross section of modified peptide (TIMS, N2, iRT-aligned); higher = larger / more extended gas-phase ion
# condition: charge state: 2; modification: Methyl (K)

record sequence | collision cross section [Å²]
SDSGKPYYYNSQTK [_SDSGK(Methyl (K))PYYYNSQTK_] | 422.21
DSSPTTNSKLSALQR [_DSSPTTNSK(Methyl (K))LSALQR_] | 419.3
PASGAGAGAGAGKR [_PASGAGAGAGAGK(Methyl (K))R_] | 381.78
GTITVSAQELKDNR [_GTITVSAQELK(Methyl (K))DNR_] | 439.73
VGIDTPDIDIHGPEGKLK [_VGIDTPDIDIHGPEGK(Methyl (K))LK_] | 463.74
SITHSTVGSKGEK [_SITHSTVGSK(Methyl (K))GEK_] | 402.47
GGPGSTLSFVGKR [_GGPGSTLSFVGK(Methyl (K))R_] | 391.3
LGNDFHTNKR [_LGNDFHTNK(Methyl (K))R_] | 368.02
SKHLQEQLNELK [_SK(Methyl (K))HLQEQLNELK_] | 411.32
LQDVSGQLSSSKK [_LQDVSGQLSSSK(Methyl (K))K_] | 404.82
DDSFLGKLGGTLAR [_DDSFLGK(Methyl (K))LGGTLAR_] | 408.16
ISSNFSSIIAEKLR [_ISSNFSSIIAEK(Methyl (K))LR_] | 438.59
IQTKAGEATVK [_IQTK(Methyl (K))AGEATVK_] | 367.02
FDDTNPEKEEAK [_FDDTNPEK(Methyl (K))EEAK_] | 400.43
VLTANSNPSSPSAAKR [_VLTANSNPSSPSAAK(Methyl (K))R_] | 432.87
TQAYQDQKPGTSGLR [_TQAYQDQK(Methyl (K))PGTSGLR_] | 422.44
DTGEKLTVAENEAETK [_DTGEK(Methyl (K))LTVAENEAETK_] | 429.8
VSPASSVDSNIPSSQGYKK [_VSPASSVDSNIPSSQGYK(Methyl (K))K_] | 486.85
LQLEIDQKK [_LQLEIDQK(Methyl (K))K_] | 367.47
GEVQVSDKER [_GEVQVSDK(Methyl (K))ER_] | 360.9
INNFSADIKDSK [_INNFSADIK(Methyl (K))DSK_] | 401.35
SSFAYKDQNENR [_SSFAYK(Methyl (K))DQNENR_] | 422.28
LEKTIDDLEEK [_LEK(Methyl (K))TIDDLEEK_] | 405.66
SPDEAYAIAKK [_SPDEAYAIAK(Methyl (K))K_] | 372.23
ASEALLKQLK [_ASEALLK(Methyl (K))QLK_] | 369.33
FGTINIVHPKLGSYTK [_FGTINIVHPK(Methyl (K))LGSYTK_] | 470.37
ATVASSTQKFQDLGVK [_ATVASSTQK(Methyl (K))FQDLGVK_] | 464.26
GTISAPGKVVTAAAQAK [_GTISAPGK(Methyl (K))VVTAAAQAK_] | 466.62
VNALKNLQVK [_VNALK(Methyl (K))NLQVK_] | 371.4
AGQKLIDVNHYAK [_AGQK(Methyl (K))LIDVNHYAK_] | 421.24
YIEIYVQKVNPSR [_YIEIYVQK(Methyl (K))VNPSR_] | 439.54
SKLLFSNTAAQK [_SK(Methyl (K))LLFSNTAAQK_] | 387.94
LGVATVAKGVCGACK [_LGVATVAK(Methyl (K))GVCGACK_] | 433.3
IHVQSSSDSSDEPAEKR [_IHVQSSSDSSDEPAEK(Methyl (K))R_] | 448.84
AAQASDLEKIHLDEK [_AAQASDLEK(Methyl (K))IHLDEK_] | 449.24
SDDESSQKDIK [_SDDESSQK(Methyl (K))DIK_] | 375.97
VYIASSSGSTAIKK [_VYIASSSGSTAIK(Methyl (K))K_] | 428.78
LLEEEDSKLK [_LLEEEDSK(Methyl (K))LK_] | 382.93
GFALVGVGSEASSKK [_GFALVGVGSEASSK(Methyl (K))K_] | 437.53
STGLELETPSLVPVKK [_STGLELETPSLVPVK(Methyl (K))K_] | 452.34
YEEIVKEVSTYIK [_YEEIVK(Methyl (K))EVSTYIK_] | 440.62
GADFLVTEVENGGSLGSKK [_GADFLVTEVENGGSLGSK(Methyl (K))K_] | 494.56
IISSIEQKEENK [_IISSIEQK(Methyl (K))EENK_] | 408.26
ANEKTESSSAQQVAVSR [_ANEK(Methyl (K))TESSSAQQVAVSR_] | 440.42

All values here come from the supplement of paper PMC10598134.
